tested on: OVCAR-4 ovarian; test: NCI tumour cell line growth inhibition, 48 h
The entries below are paired with their reported TGI.
metric: TGI

{"columns": ["molecule", "measured.result"],
 "data": [
  ["Nc1ncnc2c1ncn2C1CC(O)C(CO)O1 (centres undefined)", "> 100 µM"],
  ["CCCCCCN1CCc2c(C)c(C#N)c3nc4ccccc4n3c21", "> 100 µM"],
  ["CCOC(=O)[C@@H]1[C@@H]2NC(=O)N[C@@]1(C)Oc1ccccc12", "> 100 µM"],
  ["O=S(=O)(c1ccccc1)n1c(C(O)c2ccccc2)cc2ccccc21 (centres undefined)", "50.2 µM"],
  ["C/C(=C\\COP(=O)(O)OP(=O)(O)O)CCCOCc1ccccc1", "> 100 µM"],
  ["Cc1cc(=O)n2nnc3c4ccccc4ccc3n12", "3.27 µM"],
  ["CCC1=C(C(C)=O)[C@@H]2CCCCC(C(=O)OC)[C@@H]2C1=O (some centres undefined)", "> 100 µM"],
  ["ONCCCn1cnc2c(NC3CC3)ncnc21", "> 100 µM"],
  ["CCn1c2ccccc2c2cc(N=Nc3ccc(C#N)cc3)ccc21", "> 100 µM"],
  ["Cc1c(C(=O)O)n2c(C)nnc2c2ccccc12", "> 100 µM"],
  ["O=S(O)CCCCCSSSCCCCCS(=O)O", "> 100 µM"],
  ["CC(C)NC(C)C(C)c1ccccc1 (centres undefined)", "> 100 µM"],
  ["Cc1ccc(CN(C)c2ccc(CO)c(Cl)c2)cc1", "13.7 µM"],
  ["COc1ccc2c(c1OC)-c1c(c3ccc([N+](=O)[O-])cc3c(=O)n1CCCN)C2=O", "12.1 µM"],
  ["CC1=CC2C(=O)N(c3ccccc3)C(=O)C2CC1n1[nH]c(=O)n(Cc2ccccc2)c1=O (centres undefined)", "> 100 µM"],
  ["CC(=O)c1c(Nc2cccc(F)c2)[nH]c2c(Cl)cc(Cl)c(Cl)c2c1=O", "> 100 µM"],
  ["COc1ccc(-c2nc(Sc3c([N+](=O)[O-])ncn3C)n[nH]2)cc1", "81.2 µM"],
  ["O=C(NC(=S)Nc1ccc2c(c1)Sc1ccccc1O2)c1ccccc1", "92.3 µM"],
  ["COc1cc(C2Oc3cc(-c4oc5cc(O)cc(O)c5c(=O)c4O)ccc3OC2CO)ccc1O (centres undefined)", "> 76.7 µM"],
  ["Cc1csc2nc(-c3ccncc3)cn12", "> 100 µM"],
  ["Nc1ccccc1Nc1ccccc1C(=O)[O-].Nc1ccccc1Nc1ccccc1C(=O)[O-].[Ni+2]", "> 100 µM"],
  ["CC(=O)Oc1cc(C(C)C)c(OCCN(C)C)cc1C", "> 100 µM"],
  ["C=C(CCOC)CCC1CCCCC/C1=N\\N(C)C (centres undefined)", "> 100 µM"],
  ["CC1=C(C(=O)CC(=O)C(=O)Nc2ccc(Cl)cc2C)Sc2ccccc2N1", "> 100 µM"]
]}

----------
The entries below are paired with their reported TGI.
system: MCF7 breast; assay: NCI tumour cell line growth inhibition, 48 h

{"columns": ["compound", "test.target", "value.modifier", "TGI, µM"],
 "data": [
  ["CCCCCCCCCCCC[C@@H](O)[C@H]1CC[C@H]([C@H]2CC[C@H]([C@H](O)CC[C@H](O)CCCCCCCC3=C[C@H](C)OC3=O)O2)O1", "MCF7 breast", "=", 2.72],
  ["O=C(Nc1ccc(Cl)cc1)Nc1ccc(Cl)c(C(F)(F)F)c1", "MCF7 breast", "=", 7.85],
  ["C#CC[C@@H]1C[C@]2(C)[C@H]3CC[C@@H]4[C@H]5C(C(=C)C)CC[C@]5(C(=O)NCCCCN)CC[C@@]4(C)[C@]3(C)CC[C@H]2C(C)(C)[C@H]1OC(C)=O (stereo not given in full)", "MCF7 breast", "=", 3.86],
  ["Cc1cc2cn3c4ccc(O)cc4nc(N)c3c2cc1C", "MCF7 breast", "=", 1.76],
  ["NNC(=O)c1ccccc1Nc1nc(-c2cccs2)nc2ccc(Br)cc12", "MCF7 breast", ">", 100]
]}

----------
tested on: UO-31 renal; assay: NCI tumour cell line growth inhibition, 48 h; in the data active = GI50 below about 0.43 µM; inactive = the rest
Where a SMILES comes first, the peptide text is derived from it. [ ]: non-standard residue; d: D form. The star is where a group is joined. ξ: configuration not given here. NMeF = CN[C@@H](Cc1ccccc1)C(=O)O; NMeV = CN[C@H](C(=O)O)C(C)C; ξNMeN = CNC(CC(N)=O)C(=O)O; NMeA = CN[C@@H](C)C(=O)O; ξNMeV = CNC(C(=O)O)C(C)C; Boc = CC(C)(C)OC(=O)*
Classes used: YES for active, NO for inactive

{"columns": ["molecule", "test.target", "cat"],
 "data": [
  ["C[CH2][Pb]([CH2]C)([CH2]C)[O]C(=O)COC", "UO-31 renal", "NO"],
  ["COc1cccc2c1O/C(=C\\c1ncc([N+](=O)[O-])n1C)C2=O", "UO-31 renal", "YES"],
  ["CCCN1C/C(=C\\c2ccc(O)c(OC)c2)C(=O)/C(=C/c2ccc(O)c(OC)c2)C1", "UO-31 renal", "NO"],
  ["Cc1ccc(C2=Nc3c(N)nc(N)nc3NC(c3cccc(Nc4ccnc5cc(C(F)(F)F)ccc45)c3)C2)cc1 (centres undefined)", "UO-31 renal", "NO"],
  ["CC1(C)CC[C@]2(C(=O)Nc3ccccn3)CC[C@]3(C)C(=CC[C@@H]4[C@@]5(C)C/C(=C/c6ccncc6)C(=O)C(C)(C)[C@@H]5CC[C@]43C)[C@@H]2C1", "UO-31 renal", "NO"],
  ["COc1ccc(C(=S)N(C)NC(=O)CC(=O)NN(C)C(=S)c2ccc(OC)cc2)cc1", "UO-31 renal", "NO"],
  ["COc1cc(C2CC(c3cccc(Nc4ccncc4)c3)=NN2c2ccccc2)cc(OC)c1OC (centres undefined)", "UO-31 renal", "NO"],
  ["COc1cc(/C=C2\\C(=O)Nc3ccccc32)cc(OC)c1O", "UO-31 renal", "NO"],
  ["O=C(CN(/C=C/C(=O)C(F)(F)F)c1ccc(Cl)cc1)c1ccc(F)cc1", "UO-31 renal", "NO"],
  ["COC(=O)[C@H](C)N(C)C(=O)C(CC(N)=O)N(C)C(=O)[C@H](Cc1ccccc1)N(C)C(=O)[C@@H]1CCCN1C(=O)[C@H](C(C)C)N(C)C(=O)C(C(C)C)N(C)C(=O)[C@@H](NC(=O)OC(C)(C)C)C(C)C (some centres undefined) (Boc-V[ξNMeV][NMeV]P[NMeF][ξNMeN][NMeA]-OMe)", "UO-31 renal", "NO"],
  ["COc1cc(OC)c(/C=C/c2cc[n+](C)c3ccccc23)c(OC)c1", "UO-31 renal", "NO"],
  ["CC(=O)c1c(Nc2cccc(F)c2)[nH]c2c(Cl)cc(Cl)c(Cl)c2c1=O", "UO-31 renal", "YES"],
  ["COc1cc2cnc3c(c2c(OC)c1OC)Cc1cc2c(cc1-3)OCO2", "UO-31 renal", "NO"],
  ["CNCCCNc1nc2ccccc2c2c(=O)c3cc(F)ccc3sc12", "UO-31 renal", "NO"],
  ["Cc1nn2c(/C=N/N=C(N)N)c(-c3ccc(Cl)c([N+](=O)[O-])c3)nc2s1", "UO-31 renal", "NO"],
  ["CC(=O)N1CCC(Nc2ncc3cc(Oc4ccc(F)cc4F)c(=O)n(C)c3n2)CC1", "UO-31 renal", "NO"],
  ["COc1cc(/C=C/C(=O)c2ccccc2)cc(OC)c1OC", "UO-31 renal", "NO"],
  ["COc1ccc(C2C=C(c3ccc(OC)c(OC)c3)N=C3SC=CN32)c(Br)c1 (centres undefined)", "UO-31 renal", "NO"],
  ["Cn1c(-c2ccncc2)c(-c2ccc(F)cc2)c2ncccc21", "UO-31 renal", "NO"]
]}

----------
tested on: KM20L2 colon; test: NCI tumour cell line growth inhibition, 48 h
The entries below are paired with their reported TGI.

{"columns": ["compound", "TGI"],
 "data": [
  ["CC(C)N(C(C)C)[PH+]1O[PH+](N(C(C)C)C(C)C)O[PH+](N(C(C)C)C(C)C)O[PH+](N(C(C)C)C(C)C)O1.[C-]#[O+].[C-]#[O+].[C-]#[O+].[C-]#[O+].[C-]#[O+].[C-]#[O+].[C-]#[O+].[C-]#[O+].[Mo].[Mo] (centres undefined)", "> 100 µM"],
  ["C[CH2][Sn]([CH2]C)([O]C(=O)c1c(F)cccc1F)[O][Sn]([CH2]C)([CH2]C)[O]C(=O)c1c(F)cccc1F", "68.8 µM"],
  ["CC(=O)Nc1ccc(-c2nnc(SCC(=O)Nc3ccc(Cl)cc3Cl)o2)cc1", "> 100 µM"],
  ["CN1CCCC2[C@@H]3CCC4=C(O)C(=O)CC[C@]4(C)C3CC[C@@]21C (some centres undefined)", "> 100 µM"]
]}

Taken from PubChem BioAssay (NCI).
